# measurement.notes: Pharmacokinetics after a single intraperitoneal dose, plasma by LC-MS/MS
# Type: in vivo, male Balb/cAnN mice
# condition.summary: male, Balb/cAnN; mouse, IP, 10 mg/kg, plasma; read-out: T1/2 (HL_Lambda_z)
reported.endpoint: half-life (h)
The answer is to be given in h; state only the numeric part.

Challenge: Please give measured half-life of the following entry: Cc1nc2ccccc2c(=O)n1-c1ccc(NC(=O)Cc2ccccc2)cc1
Response given: 1.9

* * *

# study.system: hFSP1 (Homo sapiens, UniProt Q9BRQ8)
# measurement.notes: Dose-response of screening hits, cell survival by Aquabluer in hFSP1 GPX4 KO cells
# condition.summary: FSP1 overexpressing cells lacking GPX4
# Experimental: To identify new small molecule inhibitors that induce ferroptosis in FSP1 overexpressing cells lacking GPX4, hFSP1 GPX4 KO as well as FSP1 GPX4 wild type (WT) isogenic fibroblasts were screened using a subtractive high throughput screening (HTS) approach. […] Cell survival was evaluated using the LIVE/DEAD assay Aquabluer. The percentage (%) of viable cells was determined for both wild type (WT) and knockout (KO) cell lines. […]
pEC50: −log10 of the molar value.
Below, each of the compounds is paired with its reported pEC50 value.

COc1cc(CC(=O)Nc2ccc(-n3c(C)nc4ccncc4c3=O)cc2)cc(OC)c1OC :: < 6.00
Cc1nc2cc(F)c(F)cc2c(=O)n1-c1ccc(NC(=O)Cc2cc(F)c(F)c(F)c2)cc1 :: > 6.00
COc1cc(CC(=O)Nc2ccc(-n3c(CF)nc4ccccc4c3=O)cc2)cc(OC)c1OC :: > 6.00

Challenge: Please give measured pEC50 of the following entry: Cc1cccc(CC(=O)Nc2ccc(-n3c(C)nc4ccccc4c3=O)cc2C)c1
Response given: < 6.00

Challenge: Please give measured pEC50 of the following entry: COc1cccc(CC(=O)Nc2ccc(-n3c(C)nc4ccccc4c3=O)cc2)c1
Response given: < 6.00

Challenge: Please give measured pEC50 of the following entry: Cc1ccccc1CC(=O)Nc1ccc(-n2c(C)nc3ccccc3c2=O)cc1
Response given: < 6.00

Challenge: Please give measured pEC50 of the following entry: Cc1nc2cc(F)c(F)cc2c(=O)n1-c1ccc(NC(=O)Cc2ccc3c(c2)CCC3)cc1
Response given: > 7.00

* * *

# measurement.notes: Pharmacokinetics after a single intraperitoneal dose, plasma by LC-MS/MS
# Format: in vivo, male Balb/cAnN mice
# condition.summary: male, Balb/cAnN; mouse, IP, 10 mg/kg, plasma; read-out: MRT (MRTinf) (converted)
reported.endpoint: MRT inf (h)
The answer is to be given in h; state only the numeric part.

Challenge: Please give measured MRT inf of the following entry: Cc1nc2ccccc2c(=O)n1-c1ccc(NC(=O)Cc2ccccc2)cc1 [Compound 13]
Response given: 2.52

* * *

# measurement.notes: Pharmacokinetics after a single intraperitoneal dose, plasma by LC-MS/MS
# Type: in vivo, male Balb/cAnN mice
# condition.summary: male, Balb/cAnN; mouse, IP, 10 mg/kg, plasma
reported.endpoint: Cmax (ng/mL)
The answer is to be given in ng/mL; state only the numeric part.

Challenge: Please give measured Cmax of the following entry: Cc1nc2ccccc2c(=O)n1-c1ccc(NC(=O)Cc2ccccc2)cc1
Response given: 10200

* * *

# study.system: hFSP1 (Homo sapiens)
# Sequence (Q9BRQ8 1-373): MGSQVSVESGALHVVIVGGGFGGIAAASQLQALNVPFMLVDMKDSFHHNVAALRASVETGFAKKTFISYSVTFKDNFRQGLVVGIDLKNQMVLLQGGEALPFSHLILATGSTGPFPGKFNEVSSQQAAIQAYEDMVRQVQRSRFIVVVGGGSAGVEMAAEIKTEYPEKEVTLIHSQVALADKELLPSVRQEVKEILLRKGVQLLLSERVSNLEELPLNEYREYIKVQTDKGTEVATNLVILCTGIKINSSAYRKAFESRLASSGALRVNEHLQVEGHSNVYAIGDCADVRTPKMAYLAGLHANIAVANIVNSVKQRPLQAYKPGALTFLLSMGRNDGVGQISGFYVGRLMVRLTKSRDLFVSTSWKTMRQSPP
# measurement.notes: Dose-response of screening hits, cell survival by Aquabluer in hFSP1 GPX4 KO cells
# condition.summary: FSP1 overexpressing cells lacking GPX4
pEC50: −log10 of the molar value.
reported.endpoint: pEC50

Known pEC50 results, listed for orientation:
Cc1nc2ccccc2c(=O)n1-c1ccc(NS(=O)(=O)Cc2ccccc2)cc1 [Compound 72] :: < 6.00
COc1ccc(CC(=O)Nc2ccc(-n3c(C)nc4ccccc4c3=O)cc2C)cc1Cl [Compound 33] :: > 6.00
COc1ccc(CC(=O)Nc2ccc(-n3c(C)nc4ccccc4c3=O)cc2)cc1Cl [Compound 7] :: > 6.00

Challenge: Please give measured pEC50 of the following entry: COc1cccc(CC(=O)Nc2ccc(-n3c(C)nc4ccccc4c3=O)cc2C)c1 [Compound 28]
Response given: < 6.00
